Sourced from a melting point compilation (Tetko et al.; mined from patent text by program, amines drawn as free bases though some values may be those of a salt)

Record form. Attribute: melting point. Fill in for each entry.

[in] # return recorded melting point for entry O=C(NCCO[N+](=O)[O-])c1ccc(C2NC(C(=O)O)CS2)cc1 (stereo unspecified)
[out] 128 to 130 °C

[in] # return recorded melting point for entry N#Cc1cccc(-c2cnco2)n1
[out] 148 °C

[in] # return recorded melting point for entry COc1ccc(Oc2ccc3ccc(NC(=O)c4ccccc4)nc3n2)cc1
[out] 171 °C

[in] # return recorded melting point for entry Nc1nc(-c2ccc(CCN3CCN(c4cccc5cc(F)ccc45)CC3)cc2)cs1
[out] 220 to 225 °C

[in] # return recorded melting point for entry CCCn1c(=O)c(C(=O)OCC)c(O)c2cnc(-c3ccccc3)nc21
[out] 164 to 167 °C

[in] # return recorded melting point for entry CC#Cc1cn(C2OC(CO)C(O)C2O)c(=O)nc1N (stereo unspecified)
[out] 241 to 243 °C

[in] # return recorded melting point for entry O=C(NCCCCC1N=C(c2ccccc2)OC1=O)OCc1ccccc1 (stereo unspecified)
[out] 72 to 73 °C

[in] # return recorded melting point for entry Cc1sc(C)c(CC#N)c1CC#N
[out] 124 to 126 °C

[in] # return recorded melting point for entry Cc1ccc(-c2ccc(S(=O)(=O)N3c4ccccc4CC3C(=O)NCCOc3ccc(CC(=O)O)cc3)cc2C(F)(F)F)cc1 (stereo unspecified)
[out] 92 °C

[in] # return recorded melting point for entry CC(=O)OC1CC2C3CCC(C(C)CCCC(C)C)C3(C)CCC2C2(C)CC(F)C(=O)CC12 (stereo unspecified)
[out] 153 to 156 °C

[in] # return recorded melting point for entry Cn1nc(-c2cccnc2)nc1-c1cccnc1
[out] 148 to 149 °C

[in] # return recorded melting point for entry CNCC(O)(Cn1cncn1)c1ccc(Cl)cc1Cl (stereo unspecified)
[out] 98 to 101 °C

[in] # return recorded melting point for entry O=Cc1nccn1Cc1ccccc1[N+](=O)[O-]
[out] 141 to 144 °C

[in] # return recorded melting point for entry Clc1ccc(-c2cn3ccccc3n2)c(Cl)c1
[out] 174 to 177 °C

[in] # return recorded melting point for entry O=C(CC1COCCO1)NC1CCC(CCN2CCN(c3nccc4c3OCC4)CC2)CC1 (stereo unspecified)
[out] 181 °C

[in] # return recorded melting point for entry COc1cc(C(=O)OC(C)(C)C)ccc1Cn1cc(CC(C)C(=O)O)c2ccc(C(=O)NCC3CCCC3)cc21 (stereo unspecified)
[out] 195 to 197 °C

[in] # return recorded melting point for entry N#CN1CCC(c2n[nH]c3cc(Cl)ccc23)CC1
[out] 180 to 188 °C

[in] # return recorded melting point for entry CCCCCCCCCCCCCc1cc(C(=O)OCC)c[nH]1
[out] 59.5 to 60.5 °C

[in] # return recorded melting point for entry c1ccc(OCC2CCNCC2)cc1
[out] 42 to 43 °C

[in] # return recorded melting point for entry CS(=O)(=O)c1ccc(-c2cnn(CC(F)(F)F)c(=O)c2OC2CCCC2)cc1
[out] 148 to 150 °C

[in] # return recorded melting point for entry CC(C)Oc1cc(CCC(=O)NS(C)(=O)=O)n(Cc2ccc(Cl)cc2Cl)n1
[out] 104 to 105 °C

* * *

recordedEndpoint: melting point

[in] # return recorded melting point for entry COc1cc2c(cc1OCc1ccccc1)CCN(C(=O)NCCN(C)C1CCCCC1)C2c1ccccc1 (stereo not given)
[out] 109 to 110 °C

[in] # return recorded melting point for entry CCCCOc1ccc(C(=O)NC[C@@H](C(=O)NO)N2CCN(S(C)(=O)=O)CC2)cc1
[out] 130 °C

[in] # return recorded melting point for entry N#CCN1CCC(=C2c3cc(F)ccc3CCn3ccnc32)CC1
[out] 198 °C

[in] # return recorded melting point for entry CCNC(=O)n1nc(Oc2ncc(C(F)(F)F)cc2Cl)cc1C
[out] 85 to 86 °C

[in] # return recorded melting point for entry CCn1c(=O)c(C#N)c(O)c2ccc(C)nc21
[out] 274 to 276 °C

[in] # return recorded melting point for entry Cc1cccc(NC(=O)NCC(=O)N2[C@@H](C(=O)OC(C)(C)C)C[C@H](CO)[C@H]2c2ccccc2)c1 (racemic)
[out] 168 °C

[in] # return recorded melting point for entry CC(=O)OC1CC(CO)OC1n1ccc(=O)[nH]c1=O (stereo not given)
[out] 148 to 149 °C

[in] # return recorded melting point for entry COc1ccc(C(=O)OC2CC3C(=O)NC4(C(=O)NS(=O)(=O)C5CC5)CC4C=CCOCCCC(NC(=O)OC(C)(C)C)C(=O)N3C2)cc1 (stereo not given)
[out] 145 to 147 °C

[in] # return recorded melting point for entry CC(C)CC(=O)Nc1cccc(-c2ccnc3c(-c4ccc(Oc5ccccc5)cc4)cnn23)c1
[out] 175 to 178 °C

[in] # return recorded melting point for entry Cc1cc(N)c([N+](=O)[O-])cc1NCC(O)CO (stereo not given)
[out] 150 °C

[in] # return recorded melting point for entry Cc1cc(Oc2cc(C(F)(F)F)nn2C)nc(C(=O)O)c1
[out] 168 °C

[in] # return recorded melting point for entry O=C(O)CCCCCCCCCCCCCCCCCCCN1C(=O)C=CC1=O
[out] 104 to 106 °C

[in] # return recorded melting point for entry CN=C(NC#N)C1=CC(CF)(CF)Oc2ccc([N+](=O)[O-])cc21
[out] 259 to 261 °C

[in] # return recorded melting point for entry O=C1Nc2cccc(-c3ccc(Oc4ccccc4)cc3)c2C12COc1cc3c(cc12)OCCO3 (stereo not given)
[out] 243 to 246 °C

[in] # return recorded melting point for entry Cn1c(CO)nc2cc(Br)cnc21
[out] 142 to 144 °C

[in] # return recorded melting point for entry CNc1nc(-c2cccc(Br)c2)c2cc(OC)c(OC)cc2n1
[out] 246 to 248 °C

[in] # return recorded melting point for entry NC(=O)N(c1ccc(F)cc1)c1ccc(F)cc1
[out] 150 to 153 °C

[in] # return recorded melting point for entry CC(C(=O)O)c1ccc2nc3ccc(S(C)(=O)=O)cn3c(=O)c2c1 (stereo not given)
[out] 240 °C

[in] # return recorded melting point for entry COc1nc2ccccc2cc1NC(=O)N1CCN(c2ccccc2F)CC1
[out] 156 to 158 °C

[in] # return recorded melting point for entry CCOC(=O)c1ccc(NC(=O)NCCN2CCN=C2c2ccncc2)cc1
[out] 120 °C

[in] # return recorded melting point for entry CCCCNS(=O)(=O)CCCCn1c(COCC)nc2c(N)nc3ccccc3c21
[out] 148 to 149 °C

[in] # return recorded melting point for entry Cc1cc(C)nc(Sc2ccnc3cc(Cl)ccc23)n1
[out] 127 to 130 °C

[in] # return recorded melting point for entry CN1CC(c2ccc(Cc3ccc(F)cc3)cn2)=C(O)C1=O
[out] 204 to 206 °C

[in] # return recorded melting point for entry CCC(CC(=O)NC(=O)OC(C)(C)C)Nc1ccc(Cl)cc1 (stereo not given)
[out] 93 to 94 °C

[in] # return recorded melting point for entry CN(C)NC(=O)NCCCCC1CCSS1 (stereo not given)
[out] 60 to 61 °C

[in] # return recorded melting point for entry CC1CC(=O)NN=C1c1ccc(NC(=O)OC(C)C2CC2)cc1 (stereo not given)
[out] 223 to 224 °C

[in] # return recorded melting point for entry Oc1ccccc1-c1ccncc1
[out] 218 to 220 °C

[in] # return recorded melting point for entry CCn1cc(C(=O)O)c(=O)c2cc(F)c(N3CCSC3)cc21
[out] 270 to 273 °C

[in] # return recorded melting point for entry Cc1cc2n[nH]c(=O)n2nc1-c1ccc(C#N)cc1
[out] > 300 °C

[in] # return recorded melting point for entry O=c1cc(-c2ccccc2)oc2cc(OCCCCCCN3CCCCC3)cc(O)c12
[out] 103 °C

[in] # return recorded melting point for entry CCNC1CCN(c2c(F)cc3c(=O)c(C(=O)O)cn(CC)c3c2F)C1 (stereo not given)
[out] 227 to 229 °C

[in] # return recorded melting point for entry CC(C)OP(=O)(COCCOc1nc(N)nc(N)c1C=O)OC(C)C
[out] 225 to 227 °C

[in] # return recorded melting point for entry CCOC(=O)c1nc2ccc(F)cc2n(CC)c1=O
[out] 99 to 102 °C

[in] # return recorded melting point for entry NC(=O)c1cnn2c(-c3cccc(C(F)(F)F)c3)ccnc12
[out] 256 to 258 °C

[in] # return recorded melting point for entry Cc1nc2cccc(S(=O)(=O)n3c(COC(C)(C)C(=O)O)cc4cc(C(F)(F)F)ccc43)c2s1
[out] 98 to 100 °C

[in] # return recorded melting point for entry CC1(c2ccc(O)c(Br)c2)C(=O)Nc2cc(Cl)cc(Cl)c2C1=O (stereo not given)
[out] 228 to 229 °C

[in] # return recorded melting point for entry COC(=O)C1=C(CF)NC(C)=C(C(=O)OC(C)C)C1c1cccc(OC)c1OC (stereo not given)
[out] 89 to 91 °C

[in] # return recorded melting point for entry CCOc1ccc(C(=O)CCC(=O)Nc2cc(OCCC(C)C)cc(-c3ccccc3)n2)cc1OCC
[out] 122 to 123 °C

[in] # return recorded melting point for entry COc1ccc2c(=O)n(S(=O)(=O)c3ccc(C)cc3)c(=O)[nH]c2c1
[out] 228 to 231 °C

[in] # return recorded melting point for entry Nc1ncc(-c2cccc(OCc3ccccc3)c2)cc1C(=O)NC1CC1
[out] 177 to 178 °C
